Each entry below carries its reported Mean relative activity.
Tested on: K562 CRISPRi cells
TEST SUMMARY: Constant region variant library pooled growth screen, K562
Type: cell-based, human
CONDITION NOTES: sgRNA constant region variants; activity relative to the original, un-modified constant region cr995
Write no unit; give the number alone.

# MOLECULE, Mean relative activity
measured = [
    ("cr729 (nucleic acid, listed as DNA, chemistry not fully specified) guide: GTTTAAGAGCTAAGCTGGAAATAGCATAGCAAGTTTAAATAAGGCTAGTCCGTTATCAACTTGAAAAAGTGGCACCGAGTCGGTGCT", 0.8793),
]

The value of Mean relative activity measured for the molecule cr211 (nucleic acid, listed as DNA, chemistry not fully specified) guide: GTTTAAGAGCTAAGCTGGAAACAGCATAGCAAGTTTAAATAAGTCTAGTCCGTTATCAACTTGAAAAAGTGGCACCGAGTCGGTGCT turned out to be 0.04075
